Recorded values, source paper PMC7574915.

# Test system: MERS-CoV
# EXPERIMENTAL_DETAILS: microbe, parasite or virus in culture
# Assay type: cell-based
# RECORDED_CONDITIONS: read-out: EC50 in cell culture, MERS-CoV
ENDPOINT_NAME: pEC50
Field pEC50 (float): negative decimal logarithm of the concentration in molar.

Task: Return reported pEC50 for target or system MERS-CoV, item CC(C)C[C@H](NC(=O)OCc1ccccc1)C(=O)N[C@@H](C[C@@H]1CCNC1=O)C(O)S(=O)(=O)O (stereo partly shown) [GC376, reference compound] .
Result: 6.05

----------
# ASSAYED_SYSTEM: 3CLpro of SARS-CoV-2 (Severe acute respiratory syndrome coronavirus 2, UniProt P0DTD1)
ENDPOINT_NAME: IC50 (nM)
Form entry: value (nM) — number only.

Field: example entries. Status: answers known.
MOLECULE	UNITS_TEXT	IC50
CCCCC1CCC(OC(=O)N[C@@H](CC(C)C)C(=O)N[C@H](C=O)C[C@@H]2CCNC2=O)CC1 (stereo partly drawn)	nM	170
CC(C)C[C@H](NC(=O)OC1CCC(F)(F)CC1)C(=O)N[C@H](C=O)C[C@@H]1CCNC1=O	nM	430
CCCCC1CCC(OC(=O)N[C@@H](CC(C)C)C(=O)N[C@@H](C[C@@H]2CCNC2=O)C(O)S(=O)(=O)O)CC1 (stereo partly drawn)	nM	200

Task: Return reported IC50 for target or system 3CLpro of SARS-CoV-2 (Severe acute respiratory syndrome coronavirus 2, UniProt P0DTD1), item CCCC1CCC(OC(=O)N[C@@H](CC(C)C)C(=O)N[C@H](C=O)C[C@@H]2CCNC2=O)CC1 (stereo partly drawn) .
Result: 280

Task: Return reported IC50 for target or system 3CLpro of SARS-CoV-2 (Severe acute respiratory syndrome coronavirus 2, UniProt P0DTD1), item CC(C)C[C@H](NC(=O)OC1CCCCC1)C(=O)N[C@H](C=O)C[C@@H]1CCNC1=O .
Result: 820
